B1: PKD2L1 (parent)
chain: YSGGGYYLDLPGSRQGSAEALRAL

Variants of: B1
PROTOCOL_NOTES: protein stability index of a GFP-peptide fusion (GPS, HEK-293T) (PSI 1-6); higher = more stable;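 further: lentivirally expressed fusions sorted by FACS into six bins by GFP to DsRed ratio, PSI derived from sequencing read proportions per bin multiplied by bin number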
DETAILS: c terminus: a fixed tail appended
Form field: protein stability index (one value per entry).
Lab note: write the figure by itself, no unit.

• YSGGGYYLDKPGSRQGSAEALRAL [L10K] = 1.73
• YSGGGCYLDLPGSRQGSAEALRAL [Y6C] = 2.75
• YSGGPYYLDLPGSRQGSAEALRAL [G5P] = 2.41
• YSGGGYYLDLPGSRQGSAEALRHL [A23H] = 2.09

Exercise: Reported protein stability index for YSGGGYYLDLPGSLQGSAEALRAL [R14L] : what is it?
Solution: 2.71

Exercise: Query: protein stability index; subject: YSGGGYYLDLPGSRQGLAEALRAL [S17L]
Solution: 2.13

Exercise: Name the recorded protein stability index for YSGGGYYLDLPQSRQGSAEALRAL [G12Q] .
Solution: 1.95

Exercise: Quick one: protein stability index for YSGGGYYLDWPGSRQGSAEALRAL [L10W] ?
Solution: 1.14
